# Tested on: Ugt1a10
# Assay name: Induction of Ugt1a10 gene expression in PXR null mouse liver at 50 mg/kg dosed through gavage daily for 4 days by qPCR method
# Type: ADME, organism-based
# Design: dose 50 mg/kg
# Condition set: po, read-out: FC
Measured attribute: fold induction at 96 h
// response body must contain only the number

Ask: Please report the recorded fold induction at 96 h for CC(=O)[C@H]1[C@H](C#N)C[C@H]2[C@@H]3CC=C4C[C@@H](O)CC[C@]4(C)[C@H]3CC[C@@]21C .
Result: 1.8
